Source listed as patent US20230127898A1.

assayDetails: In vitro cytotoxicity assay (MTT cell viability) in HepG2 cells
Type: cell-based
experimentalSetup: human
measuredMetric: CC50 at 7 days

{"compound": "Cc1ccc(F)c(NC(=O)c2c3c(c(C)n2C)C(=O)NC(C)(C)CC3)c1", "CC50 at 7 days": "> 30 µM"}
{"compound": "CCn1c(C)c2c(c1C(=O)Nc1ccc(F)c(C)c1)CCC(C)(C)NC2=O", "CC50 at 7 days": "> 30 µM"}
{"compound": "Cc1cc(NC(=O)c2c3c(c(C)n2C)C(=O)N[C@@H](C)C3)ccc1F", "CC50 at 7 days": "> 30 µM"}

The recorded CC50 at 7 days for Cc1c(C(=O)Nc2ccc(F)c(F)c2)c2c(n1C)C(=O)NC(C)(C)CC2 is 5 to 30 µM

The recorded CC50 at 7 days for Cc1cc(NC(=O)c2c3c(n(C)c2C)C(=O)NC(C)CC3)ccc1F (stereo not shown) is > 30 µM
